Hello, the source for this data is patent US5807535A, in case you need it.

- measurement_description: Biodistribution of 99mTc complexes in rats
- Format: in vivo, Australian Albino Wistar Rats
- recorded_conditions: rat, liver, rats, 3 min, read-out: biodistribution liver
quantity: tissue uptake at 0.05 h (%ID/g)

[[record]]
compound_smiles = "O=C(O)CN(CCN(CC(=O)O)CC(=O)Nc1cc([N+](=O)[O-])ccc1O)CC(=O)Nc1cc([N+](=O)[O-])ccc1O"
quantity = "tissue uptake at 0.05 h"
measurement_units = "%ID/g"
recorded_measurement = 1.61

[[record]]
compound_smiles = "Nc1ccc(O)c(NC(=O)CN(CCN(CC(=O)O)CC(=O)Nc2cc(N)ccc2O)CC(=O)O)c1"
quantity = "tissue uptake at 0.05 h"
measurement_units = "%ID/g"
recorded_measurement = 0.83

